The following compounds each carry a recorded pKi for human 20S proteasome, chymotrypsin-like (ChT-L) activity (Homo sapiens, UniProt P28074).
pKi: −log10 of the molar value. Peptide text beside a SMILES is read from it.

compound	pKi
CC[C@H](C)[C@@H]1NC(=O)[C@@H]2CCCN2C(=O)[C@H](CCCCN)NC(=O)[C@H](CCCCN)NC(=O)[C@H](CO)NC(=O)[C@H](CCCCN)NC(=O)[C@H]([C@@H](C)O)NC(=O)[C@@H](NC(=O)[C@H](CCCNC(=N)N)NC(=O)CN)CSSC[C@@H](C(=O)N[C@@H](Cc2ccccc2)C(=O)N2CCC[C@H]2C(=O)N[C@@H](CC(=O)O)C(=O)O)NC1=O [Analogue X] (HELM PEPTIDE1{G.R.C.T.K.S.K.K.P.I.C.F.P.D}$PEPTIDE1,PEPTIDE1,3:R3-11:R3$$$V2.0)	6.18
CC[C@H](C)[C@@H]1NC(=O)[C@@H]2CCCN2C(=O)[C@H]([C@@H](C)CC)NC(=O)[C@H](CCCNC(=N)N)NC(=O)[C@H](CO)NC(=O)[C@H](CCCCN)NC(=O)[C@H]([C@@H](C)O)NC(=O)[C@@H](NC(=O)[C@H](CCCNC(=N)N)NC(=O)CN)CSSC[C@@H](C(=O)N[C@@H](Cc2ccccc2)C(=O)N2CCC[C@H]2C(=O)N[C@@H](CC(=O)O)C(=O)O)NC1=O [Analogue IV] (HELM PEPTIDE1{G.R.C.T.K.S.R.I.P.I.C.F.P.D}$PEPTIDE1,PEPTIDE1,3:R3-11:R3$$$V2.0)	5.88

----------
molecular target: yeast 20S proteasome, chymotrypsin-like (ChT-L) activity (Saccharomyces cerevisiae, UniProt P30656); assay: ChT-L activity of SDS-activated yeast 20S proteasome (Suc-LLVY-AMC); settings: ChT-like Yeast 20S IC50, SDS-activated yeast 20S, [E] 0.9 nM, pH 8.1, 37°C, 30 min incubation, Suc-LLVY-AMC 5.2 µM
pIC50: −log10 of the molar value. Peptide text beside a SMILES is read from it.
Entries and their pIC50 values follow.

compound	comparison.operator	pIC50
CC[C@H](C)[C@@H]1NC(=O)[C@@H]2CCCN2C(=O)[C@@H]2CCCN2C(=O)[C@H]([C@@H](C)CC)NC(=O)[C@H](CO)NC(=O)[C@H](CCCCN)NC(=O)[C@H]([C@@H](C)O)NC(=O)[C@@H](NC(=O)[C@H](CCCNC(=N)N)NC(=O)CN)CSSC[C@@H](C(=O)N[C@@H](Cc2ccccc2)C(=O)N2CCC[C@H]2C(=O)N[C@@H](CC(=O)O)C(=O)O)NC1=O [Analogue I]	=	4.28
CC[C@H](C)[C@@H]1NC(=O)[C@@H]2CCCN2C(=O)[C@H]([C@@H](C)CC)NC(=O)[C@H](CCCNC(=N)N)NC(=O)[C@H](CO)NC(=O)[C@H](CCCCN)NC(=O)[C@H]([C@@H](C)O)NC(=O)[C@@H](NC(=O)[C@H](CCCNC(=N)N)NC(=O)CN)CSSC[C@@H](C(=O)N[C@@H](Cc2ccccc2)C(=O)N2CCC[C@H]2C(=O)N[C@@H](CC(=O)O)C(=O)O)NC1=O [Analogue IV] (HELM PEPTIDE1{G.R.C.T.K.S.R.I.P.I.C.F.P.D}$PEPTIDE1,PEPTIDE1,3:R3-11:R3$$$V2.0)	=	5.27
CC[C@H](C)[C@@H]1NC(=O)[C@@H]2CCCN2C(=O)[C@H](C)NC(=O)[C@H](C)NC(=O)[C@H](CO)NC(=O)[C@H](CCCCN)NC(=O)[C@H]([C@@H](C)O)NC(=O)[C@@H](NC(=O)[C@H](CCCNC(=N)N)NC(=O)CN)CSSC[C@@H](C(=O)N[C@@H](Cc2ccccc2)C(=O)N2CCC[C@H]2C(=O)N[C@@H](CC(=O)O)C(=O)O)NC1=O [Analogue IX] (HELM PEPTIDE1{G.R.C.T.K.S.A.A.P.I.C.F.P.D}$PEPTIDE1,PEPTIDE1,3:R3-11:R3$$$V2.0)	<	4.00

----------
target: human 20S proteasome, chymotrypsin-like (ChT-L) activity (Homo sapiens)
Peptide text beside a SMILES is read from it.

compound	scale.unit	Ki
CC[C@H](C)[C@@H]1NC(=O)[C@@H]2CCCN2C(=O)[C@H](CCCCN)NC(=O)[C@H](CC(C)C)NC(=O)[C@H](CO)NC(=O)[C@H](CCCNC(=N)N)NC(=O)[C@H]([C@@H](C)O)NC(=O)[C@@H](NC(=O)[C@H](CCCNC(=N)N)NC(=O)CN)CSSC[C@@H](C(=O)N[C@@H](Cc2ccccc2)C(=O)N2CCC[C@H]2C(=O)N[C@@H](CC(=O)O)C(=O)O)NC1=O [Analogue III] (HELM PEPTIDE1{G.R.C.T.R.S.L.K.P.I.C.F.P.D}$PEPTIDE1,PEPTIDE1,3:R3-11:R3$$$V2.0)	nM	1760

----------
target: yeast 20S proteasome, chymotrypsin-like (ChT-L) activity (Saccharomyces cerevisiae, UniProt P30656); experiment: ChT-L activity of SDS-activated yeast 20S proteasome (Suc-LLVY-AMC)
Peptide text beside a SMILES is read from it. * marks the point of attachment. Cbz = O=C(OCc1ccccc1)*

compound	IC50 / µM
CC(C)C[C@@H](C=O)NC(=O)[C@H](CC(C)C)NC(=O)[C@H](CC(C)C)NC(=O)OCc1ccccc1 [Z-LLL-CHO, reference compound] (Cbz-Leu-Leu-Leu-aldehyde)	0.26
CC[C@H](C)[C@@H]1NC(=O)[C@@H]2CCCN2C(=O)[C@H](CCCCN)NC(=O)[C@H](CCCCN)NC(=O)[C@H](CO)NC(=O)[C@H](Cc2ccccc2)NC(=O)[C@H]([C@@H](C)O)NC(=O)[C@@H](NC(=O)[C@H](CCCNC(=N)N)NC(=O)CN)CSSC[C@@H](C(=O)N[C@@H](Cc2ccccc2)C(=O)N2CCC[C@H]2C(=O)N[C@@H](CC(=O)O)C(=O)O)NC1=O [Analogue VII] (HELM PEPTIDE1{G.R.C.T.F.S.K.K.P.I.C.F.P.D}$PEPTIDE1,PEPTIDE1,3:R3-11:R3$$$V2.0)	5.34
CC[C@H](C)[C@@H]1NC(=O)[C@@H]2CCCN2C(=O)[C@H](CCCCN)NC(=O)[C@H](CCCCN)NC(=O)[C@H](CO)NC(=O)[C@H](Cc2ccc(O)cc2)NC(=O)[C@H]([C@@H](C)O)NC(=O)[C@@H](NC(=O)[C@H](CCCNC(=N)N)NC(=O)CN)CSSC[C@@H](C(=O)N[C@@H](Cc2ccccc2)C(=O)N2CCC[C@H]2C(=O)N[C@@H](CC(=O)O)C(=O)O)NC1=O [Analogue VI] (HELM PEPTIDE1{G.R.C.T.Y.S.K.K.P.I.C.F.P.D}$PEPTIDE1,PEPTIDE1,3:R3-11:R3$$$V2.0)	6.6
CC[C@H](C)[C@@H]1NC(=O)[C@@H]2CCCN2C(=O)[C@H](CCCCN)NC(=O)[C@H](CC(C)C)NC(=O)[C@H](CO)NC(=O)[C@H](CCCNC(=N)N)NC(=O)[C@H]([C@@H](C)O)NC(=O)[C@@H](NC(=O)[C@H](CCCNC(=N)N)NC(=O)CN)CSSC[C@@H](C(=O)N[C@@H](Cc2ccccc2)C(=O)N2CCC[C@H]2C(=O)N[C@@H](CC(=O)O)C(=O)O)NC1=O [Analogue III] (HELM PEPTIDE1{G.R.C.T.R.S.L.K.P.I.C.F.P.D}$PEPTIDE1,PEPTIDE1,3:R3-11:R3$$$V2.0)	1.07
CC[C@H](C)[C@@H]1NC(=O)[C@@H]2CCCN2C(=O)[C@H](CCCCN)NC(=O)[C@H](CCCCN)NC(=O)[C@H](CO)NC(=O)[C@H](CCCNC(=N)N)NC(=O)[C@H]([C@@H](C)O)NC(=O)[C@@H](NC(=O)[C@H](CCCNC(=N)N)NC(=O)CN)CSSC[C@@H](C(=O)N[C@@H](Cc2ccccc2)C(=O)N2CCC[C@H]2C(=O)N[C@@H](CC(=O)O)C(=O)O)NC1=O [Analogue V] (HELM PEPTIDE1{G.R.C.T.R.S.K.K.P.I.C.F.P.D}$PEPTIDE1,PEPTIDE1,3:R3-11:R3$$$V2.0)	1.23
CC[C@H](C)[C@@H]1NC(=O)[C@@H]2CCCN2C(=O)[C@H](CCCCN)NC(=O)[C@H](CCCCN)NC(=O)[C@H](CO)NC(=O)[C@H](C)NC(=O)[C@H]([C@@H](C)O)NC(=O)[C@@H](NC(=O)[C@H](CCCNC(=N)N)NC(=O)CN)CSSC[C@@H](C(=O)N[C@@H](Cc2ccccc2)C(=O)N2CCC[C@H]2C(=O)N[C@@H](CC(=O)O)C(=O)O)NC1=O [Analogue VIII] (HELM PEPTIDE1{G.R.C.T.A.S.K.K.P.I.C.F.P.D}$PEPTIDE1,PEPTIDE1,3:R3-11:R3$$$V2.0)	8.82
